TEST_METHOD_NOTES: Plasma pharmacokinetics following oral dose administration to male Wistar Han rats
Type: in vivo
MEASUREMENT_PARAMETERS: male, Wistar Han, rat, in vivo, po, 15 mg/kg, oral gavage, 15 mg/kg (measured dose 15 mg/kg), plasma
Description: The plasma pharmacokinetics of compound 1 was assessed following oral dose administration to male Wistar Han Rats. The Wistar Han Rat was chosen as the animal model for this study as it is an accepted rodent species for preclinical toxicity testing by regulatory agencies. […]
MEASUREMENT_TYPE: Cmax (µg/mL)
Expressed in µg/mL, but write only the number.

Please report the recorded Cmax for C=C(C)[C@@H]1CCC(C)=C[C@H]1c1c(O)cc(-c2cnn(C)c2)cc1O [Compound 1] .
1.13

* * *

TEST_METHOD_NOTES: Plasma pharmacokinetics following oral dose administration to male Wistar Han rats
Assay type: in vivo
MEASUREMENT_PARAMETERS: male, Wistar Han, rat, in vivo, po, oral gavage, 45 mg/kg (measured dose 101 mg/kg), read-out: Bioavailability
MEASUREMENT_TYPE: bioavailability (%)
Expressed in %, but write only the number.

Please report the recorded bioavailability for `C=C(C)[C@@H]1CCC(C)=C[C@H]1c1c(O)cc(-c2cnn(C)c2)cc1O` .
96.4

* * *

TEST_METHOD_NOTES: Plasma pharmacokinetics following oral dose administration to male Wistar Han rats
Assay type: in vivo
MEASUREMENT_PARAMETERS: male, Wistar Han, rat, in vivo, po, oral gavage, 150 mg/kg (measured dose 204 mg/kg), plasma
Method: The plasma pharmacokinetics of compound 1 was assessed following oral dose administration to male Wistar Han Rats. The Wistar Han Rat was chosen as the animal model for this study as it is an accepted rodent species for preclinical toxicity testing by regulatory agencies. […]
MEASUREMENT_TYPE: AUC(0-inf) (µg·h/mL)
Expressed in µg·h/mL, but write only the number.

Please report the recorded AUC(0-inf) for `C=C(C)[C@@H]1CCC(C)=C[C@H]1c1c(O)cc(-c2cnn(C)c2)cc1O` .
105

* * *

TEST_METHOD_NOTES: Plasma pharmacokinetics following oral dose administration to male Wistar Han rats
Format: in vivo
MEASUREMENT_PARAMETERS: male, Wistar Han, in vivo; rat, oral gavage, 45 mg/kg (measured dose 101 mg/kg), plasma
MEASUREMENT_TYPE: half-life
I'd appreciate it if you wrote the number followed by its unit.

Please report the recorded half-life for `C=C(C)[C@@H]1CCC(C)=C[C@H]1c1c(O)cc(-c2cnn(C)c2)cc1O` .
3.6 h
